System: NKG2A+/NKG2C− NK cells
Test: NK cell activation markers in NKG2A+/NKG2C- NK cells incubated with peptide and K562 expressing HLA-E (inhibition)
Type: cell-based, human
Settings: NKG2A+/NKG2C- NK cells, K562/HLA-E, Trial 6
Where no end group is shown, it is not given here.
MEASURED ENDPOINT: percentage of CD107a+ NK cells
Answer with the number, then the unit.

Take a look at these entries with their results.
SEQ STRING	MEASURED ENDPOINT	MEASURED
TGPWRSLWI [human3, TGPWRSLWI]	percentage of CD107a+ NK cells	25.7%
TLPKRGLFL [human2, TLPKRGLFL]	percentage of CD107a+ NK cells	14%
TAPARTMFL [human13, TAPARTMFL]	percentage of CD107a+ NK cells	28.2%
NMPARTVLF [human14, peptide MTREX 490-498 derived from the human proteome]	percentage of CD107a+ NK cells	1.16%

Ask: Fill in reported percentage of CD107a+ NK cells for this entry: VMAPQSLLL [VMAPQSLLL (PQS), negative control peptide, reference compound]
Reply: 24.4%

Values were extracted from patent US20240092835A1.
